# assay-target: T1, His9-hMSR1 (human MSR1 extracellular domain) (Homo sapiens, UniProt P21757)
# T1 construct: human MSR1 extracellular domain expressed with a N-terminal nonahistidine tag; His9 (nonahistidine) (N); purchased R&D Systems 2708-MS
# T1 sequence (P21757 77-451 limits assumed): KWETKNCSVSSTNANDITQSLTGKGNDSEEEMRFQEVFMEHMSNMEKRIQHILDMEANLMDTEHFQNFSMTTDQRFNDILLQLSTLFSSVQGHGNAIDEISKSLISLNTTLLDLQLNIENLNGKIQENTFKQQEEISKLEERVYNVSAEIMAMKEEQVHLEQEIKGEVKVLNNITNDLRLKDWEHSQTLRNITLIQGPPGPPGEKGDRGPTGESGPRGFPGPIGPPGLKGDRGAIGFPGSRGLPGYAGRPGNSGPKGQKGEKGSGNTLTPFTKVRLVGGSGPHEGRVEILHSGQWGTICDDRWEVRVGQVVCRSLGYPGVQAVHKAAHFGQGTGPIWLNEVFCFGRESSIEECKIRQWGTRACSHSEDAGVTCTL
# method-notes: Biacore T200 surface plasmon resonance binding kinetics of anti-MSR1 antibody-drug conjugates and parental antibodies
# protocol-conditions: 25° C.; Table 19, antibody-LXR ADCs and unconjugated antibodies
# Experimental: The MSR1 antibodies disclosed herein were conjugated to various liver X receptor (LXR) payloads or various steroid payloads. This example describes how equilibrium dissociation constant (KD) values for human MSR1 reagents binding to human anti-MSR1 antibody-drug conjugates and their corresponding unconjugated parental antibodies were determined using a real-time surface plasmon resonance-based Biacore T200 biosensor. […]
Below, each of the molecules is paired with its reported ka value.
Please state the figure in M⁻¹ s⁻¹; there is no need to write the unit.

molecule	units	ka
H1H27729P-N297Q: anti-MSR1 antibody "made with an N297Q single point mutation in human Fcγ portion" (antibody, V domains shown) VH: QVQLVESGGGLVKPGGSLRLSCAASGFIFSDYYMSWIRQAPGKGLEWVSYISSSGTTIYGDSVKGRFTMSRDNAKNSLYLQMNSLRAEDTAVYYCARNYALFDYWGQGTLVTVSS VL: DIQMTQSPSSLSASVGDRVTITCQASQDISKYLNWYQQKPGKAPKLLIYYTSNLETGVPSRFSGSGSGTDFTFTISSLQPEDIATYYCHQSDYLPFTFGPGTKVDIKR	M⁻¹ s⁻¹	105000

Ask: Find the recorded ka belonging to H1H27747P-N297Q-LP1 (conjugate) VH: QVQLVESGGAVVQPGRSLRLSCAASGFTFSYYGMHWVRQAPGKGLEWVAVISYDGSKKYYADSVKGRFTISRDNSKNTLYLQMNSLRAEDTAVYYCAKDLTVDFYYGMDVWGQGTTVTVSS VL: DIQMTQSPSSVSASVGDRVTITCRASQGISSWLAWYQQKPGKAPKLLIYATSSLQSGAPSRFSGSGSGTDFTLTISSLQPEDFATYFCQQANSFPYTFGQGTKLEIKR and report it.
Result: 136000
